Biological target: human HER3 endogenously expressed on human cancer cells (SK-Br-3, BT-474, MCF7) (human, UniProt P21860 20-1342)
Test: cell-based or functional assay
Value Type: SK-Br-3 proliferation IC50
Field: value (include unit after the number)

Worked examples follow.
Binder	SK-Br-3 proliferation IC50
MOR12922 (antibody, human IgG1, lambda, V domains shown) VH: QVQLVQSGAEVKKPGASVKVSCKASGYTFTGYYMHWVRQAPGQGLEWMGVIDPYSGWTEYAQKFQGRVTMTRDTSISTAYMELSRLRSEDTAVYYCARGSFYTRDSYFDVWGQGTLVTVSS VL: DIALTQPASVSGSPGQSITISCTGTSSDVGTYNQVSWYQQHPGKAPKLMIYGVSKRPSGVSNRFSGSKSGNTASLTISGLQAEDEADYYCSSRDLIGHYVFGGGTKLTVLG	0.709 nM
MOR12603 (antibody, human IgG1, kappa, V domains shown, Tested as IgG) VH: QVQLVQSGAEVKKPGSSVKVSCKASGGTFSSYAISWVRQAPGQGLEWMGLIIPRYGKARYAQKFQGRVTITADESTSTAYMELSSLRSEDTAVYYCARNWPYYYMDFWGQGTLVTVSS VL: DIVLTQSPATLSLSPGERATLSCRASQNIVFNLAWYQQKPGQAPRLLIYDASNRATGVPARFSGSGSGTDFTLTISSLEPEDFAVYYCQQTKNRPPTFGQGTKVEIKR	0.034 nM
MOR12920 (antibody, human IgG1, lambda, V domains shown) VH: QVQLVQSGAEVKKPGASVKVSCKASGYTFTGYYMHWVRQAPGQGLEWMGDIEPYHGKPLYAQKFQGRVTMTRDTSISTAYMELSRLRSEDTAVYYCARGSFYTRDSYFDVWGQGTLVTVSS VL: DIALTQPASVSGSPGQSITISCTGTSSDVGTYNQVSWYQQHPGNAPKLMIYGVSKRPSGVSNRFSGSKSGNTASLTISGLQAEDEADYYCSSRDLIGHYVFGGGTKLTVLG	2.91 nM
MOR14538 (antibody, human IgG1, lambda, V domains shown, Tested as IgG) VH: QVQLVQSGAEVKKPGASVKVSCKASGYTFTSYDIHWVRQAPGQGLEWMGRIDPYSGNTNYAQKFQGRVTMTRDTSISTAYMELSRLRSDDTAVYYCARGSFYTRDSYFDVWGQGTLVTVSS VL: QSALTQPASVSGSPGQSITISCTGTSSDVGTYNQVSWYQQHPGKAPKLMIYGVSKRPSGVSNRFSGSKSGNTASLTISGLQAEDEADYYCASADHSYHTVFGGGTKLTVLG	0.081 nM

Consider now this further binder.
Query: Given the binder MOR14534 (antibody, human IgG1, kappa, V domains shown, Tested as IgG) VH: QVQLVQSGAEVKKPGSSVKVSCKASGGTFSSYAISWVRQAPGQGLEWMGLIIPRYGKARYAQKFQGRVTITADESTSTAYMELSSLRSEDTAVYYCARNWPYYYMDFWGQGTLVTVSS VL: EIVLTQSPATLSLSPGERATLSCRASQNIVFNLAWYQQKPGQAPRLLIYDASNRATGIPARFSGSGSGTDFTLTISSLEPEDFAVYYCQQTKNRPPTFGQGTKVEIKR , what is its reported SK-Br-3 proliferation IC50?
Response: 0.027 nM
